These measurements were taken from paper PMC12586182.

Could you please report measured Percentage inhibition of kinase enzyme activity for the items listed next?
# measured_target: LYNa (Homo sapiens, UniProt P07948)
# Construct: purchased Carna Biosciences
# Sequence (P07948 whole entry): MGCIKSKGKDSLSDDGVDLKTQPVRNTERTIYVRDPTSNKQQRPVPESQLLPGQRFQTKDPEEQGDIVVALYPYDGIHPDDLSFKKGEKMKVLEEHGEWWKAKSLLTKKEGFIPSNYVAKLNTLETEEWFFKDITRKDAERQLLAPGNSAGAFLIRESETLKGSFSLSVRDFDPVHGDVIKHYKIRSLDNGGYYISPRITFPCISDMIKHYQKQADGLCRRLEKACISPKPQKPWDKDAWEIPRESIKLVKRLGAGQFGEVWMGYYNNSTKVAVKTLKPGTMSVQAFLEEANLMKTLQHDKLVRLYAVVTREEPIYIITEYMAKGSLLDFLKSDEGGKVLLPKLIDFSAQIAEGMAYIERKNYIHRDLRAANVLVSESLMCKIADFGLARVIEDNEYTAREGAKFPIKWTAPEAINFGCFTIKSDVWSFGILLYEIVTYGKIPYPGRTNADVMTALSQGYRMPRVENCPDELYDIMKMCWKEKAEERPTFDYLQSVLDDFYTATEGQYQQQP
# test_details: Kinase panel profiling at 1 µmol/L (mobility shift assay, Carna)
# Format: biochemical
# protocol_conditions: 1 µmol/L of BTK inhibitor
Expressed in %, but write only the number.

Tell us which Percentage inhibition of kinase enzyme activity value is on record for `O=C(c1ccc(Oc2ccccc2)cc1Cl)c1c[nH]c2ncnc(N[C@@H]3CC[C@@H](CO)OC3)c12`
100.76

Note Percentage inhibition of kinase enzyme activity for the molecule shown: `COc1ccc(F)cc1C(=O)NCc1ccc(-c2nn([C@@H](C)C(F)(F)F)c(N)c2C(N)=O)cc1`
46.22

Please look at this molecule and report its Percentage inhibition of kinase enzyme activity: `C=CC(=O)N1CCC[C@@H](n2nc(-c3ccc(Oc4ccccc4)cc3)c3c(N)ncnc32)C1`
98.69

Tell me its Percentage inhibition of kinase enzyme activity given `CC#CC(=O)N1CCC[C@H]1c1nc(-c2ccc(C(=O)Nc3ccccn3)cc2)c2c(N)nccn12` as the entry.
1.93

====

For each of the compounds below, state its Percentage inhibition of kinase enzyme activity.
# measured_target: SGK (Homo sapiens, UniProt O00141)
# Construct: purchased Carna Biosciences
# Sequence (O00141 1-431): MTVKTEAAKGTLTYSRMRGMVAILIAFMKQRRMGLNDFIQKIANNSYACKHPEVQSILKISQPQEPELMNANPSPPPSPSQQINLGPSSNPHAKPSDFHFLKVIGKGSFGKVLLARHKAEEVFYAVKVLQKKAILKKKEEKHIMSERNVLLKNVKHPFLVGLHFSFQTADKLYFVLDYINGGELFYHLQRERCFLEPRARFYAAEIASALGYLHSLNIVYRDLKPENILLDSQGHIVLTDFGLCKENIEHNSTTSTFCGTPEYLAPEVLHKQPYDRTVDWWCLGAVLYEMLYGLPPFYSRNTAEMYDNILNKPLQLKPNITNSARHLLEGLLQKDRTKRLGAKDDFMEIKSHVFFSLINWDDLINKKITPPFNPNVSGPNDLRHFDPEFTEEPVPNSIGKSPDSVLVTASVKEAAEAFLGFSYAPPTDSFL
# test_details: Kinase panel profiling at 1 µmol/L (mobility shift assay, Carna)
# Type: biochemical
# protocol_conditions: 1 µmol/L of BTK inhibitor
Give the number; % is assumed, so skip it.

Output measured Percentage inhibition of kinase enzyme activity for this item: O=C(c1ccc(Oc2ccccc2)cc1Cl)c1c[nH]c2ncnc(N[C@@H]3CC[C@@H](CO)OC3)c12 [nemtabrutinib]
1.16

Retrieve Percentage inhibition of kinase enzyme activity measured for C=CC(=O)N1CCC([C@@H]2CCNc3c(C(N)=O)c(-c4ccc(Oc5ccccc5)cc4)nn32)CC1 [zanubrutinib] and print it.
-0.67

Indicate its recorded Percentage inhibition of kinase enzyme activity; the compound in question is CC#CC(=O)N1CCC[C@H]1c1nc(-c2ccc(C(=O)Nc3ccccn3)cc2)c2c(N)nccn12 [acalabrutinib]
-5.11

Return Percentage inhibition of kinase enzyme activity (reported value) for this compound: COc1ccc(F)cc1C(=O)NCc1ccc(-c2nn([C@@H](C)C(F)(F)F)c(N)c2C(N)=O)cc1 [pirtobrutinib]
3.55

Give reported Percentage inhibition of kinase enzyme activity value for C=CC(=O)N1CCC[C@@H](n2nc(-c3ccc(Oc4ccccc4)cc3)c3c(N)ncnc32)C1 [ibrutinib]
-21.37

====

# Test system: NCI-H716
# test_details: Cell viability assay (ATPlite)
# Format: cell-based
# protocol_conditions: Homo sapiens; NCI-H716 cell line, 72 hours incubation
# Experimental: Intracellular ATP content was used as an indirect readout of cell number using the ATPlite 1Step bioluminescence assay (Revvity, Groningen, the Netherlands). […] After 24 hours of incubation, the starting cell number was determined by adding ATPlite to each well of a control plate and recording luminescence on an Envision multimode reader (Revvity, Waltham, MA, USA) ([4]). […] After incubation for an additional 72 hours, the ATP content was measured in each well using ATPlite. […]
measurement_kind: IC50
Numeric answer plus unit only.

Fetch value of IC50 on NCI-H716 for `O=C(c1ccc(Oc2ccccc2)cc1Cl)c1c[nH]c2ncnc(N[C@@H]3CC[C@@H](CO)OC3)c12` .
1460 nM

====

# measured_target: HIPK4 (Homo sapiens)
# Construct: purchased Carna Biosciences
# Sequence (Q8NE63 whole entry): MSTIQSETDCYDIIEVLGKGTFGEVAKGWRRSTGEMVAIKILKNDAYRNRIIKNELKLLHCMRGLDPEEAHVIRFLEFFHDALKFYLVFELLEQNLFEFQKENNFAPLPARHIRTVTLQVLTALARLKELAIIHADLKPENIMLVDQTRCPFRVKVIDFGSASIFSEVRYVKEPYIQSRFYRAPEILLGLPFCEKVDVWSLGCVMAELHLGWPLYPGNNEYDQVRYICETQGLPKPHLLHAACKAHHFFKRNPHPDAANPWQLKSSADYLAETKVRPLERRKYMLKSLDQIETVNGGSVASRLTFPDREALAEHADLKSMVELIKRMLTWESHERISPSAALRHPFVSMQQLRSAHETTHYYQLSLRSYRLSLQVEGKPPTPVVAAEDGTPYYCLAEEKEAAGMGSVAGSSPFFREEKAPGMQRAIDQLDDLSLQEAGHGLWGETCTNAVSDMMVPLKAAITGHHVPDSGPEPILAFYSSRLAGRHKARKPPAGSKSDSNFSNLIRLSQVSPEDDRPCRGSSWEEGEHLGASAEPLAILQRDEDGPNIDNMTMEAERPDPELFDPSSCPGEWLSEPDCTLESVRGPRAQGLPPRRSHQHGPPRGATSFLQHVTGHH
# test_details: Kinase panel profiling at 1 µmol/L (mobility shift assay, Carna)
# Assay type: biochemical
# protocol_conditions: 1 µmol/L of BTK inhibitor
I'd appreciate it if you could supply Percentage inhibition of kinase enzyme activity values for the items below.

Provide one value: measured Percentage inhibition of kinase enzyme activity of `CC#CC(=O)N1CCC[C@H]1c1nc(-c2ccc(C(=O)Nc3ccccn3)cc2)c2c(N)nccn12`
-9.54%

Specify measured Percentage inhibition of kinase enzyme activity for `COc1ccc(F)cc1C(=O)NCc1ccc(-c2nn([C@@H](C)C(F)(F)F)c(N)c2C(N)=O)cc1` .
2.58%

Return Percentage inhibition of kinase enzyme activity for the following compound: `C=CC(=O)N1CCC[C@@H](n2nc(-c3ccc(Oc4ccccc4)cc3)c3c(N)ncnc32)C1`
2.60%

Provide Percentage inhibition of kinase enzyme activity value for the following compound: `O=C(c1ccc(Oc2ccccc2)cc1Cl)c1c[nH]c2ncnc(N[C@@H]3CC[C@@H](CO)OC3)c12`
13.77%

====

Provide the reported Percentage inhibition of kinase enzyme activity of each item.
# measured_target: IRR (Homo sapiens, UniProt P14616)
# Construct: purchased Carna Biosciences
# Sequence (P14616 27-1297): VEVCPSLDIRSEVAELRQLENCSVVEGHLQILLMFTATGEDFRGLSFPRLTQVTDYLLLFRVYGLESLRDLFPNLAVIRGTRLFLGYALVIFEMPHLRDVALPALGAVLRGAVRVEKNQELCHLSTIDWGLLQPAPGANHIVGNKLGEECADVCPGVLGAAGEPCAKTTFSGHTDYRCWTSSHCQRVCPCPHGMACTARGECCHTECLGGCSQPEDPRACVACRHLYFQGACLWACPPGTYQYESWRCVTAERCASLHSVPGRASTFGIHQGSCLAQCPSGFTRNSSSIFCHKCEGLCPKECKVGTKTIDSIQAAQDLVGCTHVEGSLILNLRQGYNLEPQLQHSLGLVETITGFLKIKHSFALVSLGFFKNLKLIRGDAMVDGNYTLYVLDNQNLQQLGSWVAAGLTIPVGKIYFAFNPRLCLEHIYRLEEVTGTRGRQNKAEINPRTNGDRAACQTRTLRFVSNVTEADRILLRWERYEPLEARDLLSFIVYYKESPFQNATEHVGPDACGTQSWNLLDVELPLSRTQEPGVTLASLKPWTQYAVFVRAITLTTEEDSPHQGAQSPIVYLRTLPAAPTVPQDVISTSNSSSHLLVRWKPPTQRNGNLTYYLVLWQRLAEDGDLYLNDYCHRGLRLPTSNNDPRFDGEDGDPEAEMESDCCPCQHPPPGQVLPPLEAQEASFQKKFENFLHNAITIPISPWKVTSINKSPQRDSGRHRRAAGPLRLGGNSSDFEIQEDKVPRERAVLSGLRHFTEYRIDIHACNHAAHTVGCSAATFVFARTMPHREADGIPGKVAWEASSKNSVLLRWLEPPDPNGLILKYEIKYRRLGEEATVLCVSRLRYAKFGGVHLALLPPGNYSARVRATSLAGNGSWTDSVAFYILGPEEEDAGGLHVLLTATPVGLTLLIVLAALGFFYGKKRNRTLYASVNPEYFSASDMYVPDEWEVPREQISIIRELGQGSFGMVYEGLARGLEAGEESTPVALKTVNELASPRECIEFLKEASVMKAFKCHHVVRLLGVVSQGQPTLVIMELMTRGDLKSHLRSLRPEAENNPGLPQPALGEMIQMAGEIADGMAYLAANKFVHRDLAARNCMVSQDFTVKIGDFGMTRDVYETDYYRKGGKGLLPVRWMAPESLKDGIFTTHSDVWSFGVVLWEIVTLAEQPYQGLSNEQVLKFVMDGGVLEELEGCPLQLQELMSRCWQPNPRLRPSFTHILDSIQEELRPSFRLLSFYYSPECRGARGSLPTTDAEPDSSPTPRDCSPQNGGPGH
# test_details: Kinase panel profiling at 1 µmol/L (mobility shift assay, Carna)
# Type: biochemical
# protocol_conditions: 1 µmol/L of BTK inhibitor
Respond with a number, then the unit of measure.

In one line, give reported Percentage inhibition of kinase enzyme activity of the entry `CC#CC(=O)N1CCC[C@H]1c1nc(-c2ccc(C(=O)Nc3ccccn3)cc2)c2c(N)nccn12` .
-0.87%

State its Percentage inhibition of kinase enzyme activity: `O=C(c1ccc(Oc2ccccc2)cc1Cl)c1c[nH]c2ncnc(N[C@@H]3CC[C@@H](CO)OC3)c12`
77.13%

Give Percentage inhibition of kinase enzyme activity for the following compound: `COc1ccc(F)cc1C(=O)NCc1ccc(-c2nn([C@@H](C)C(F)(F)F)c(N)c2C(N)=O)cc1`
-6.47%

Determine from records and report Percentage inhibition of kinase enzyme activity for `C=CC(=O)N1CCC[C@@H](n2nc(-c3ccc(Oc4ccccc4)cc3)c3c(N)ncnc32)C1`
11.54%

Report Percentage inhibition of kinase enzyme activity for `C=CC(=O)N1CCC([C@@H]2CCNc3c(C(N)=O)c(-c4ccc(Oc5ccccc5)cc4)nn32)CC1`
34.27%

====

# measured_target: EPHB3 (Homo sapiens)
# Construct: purchased Carna Biosciences
# Sequence (P54753 34-998): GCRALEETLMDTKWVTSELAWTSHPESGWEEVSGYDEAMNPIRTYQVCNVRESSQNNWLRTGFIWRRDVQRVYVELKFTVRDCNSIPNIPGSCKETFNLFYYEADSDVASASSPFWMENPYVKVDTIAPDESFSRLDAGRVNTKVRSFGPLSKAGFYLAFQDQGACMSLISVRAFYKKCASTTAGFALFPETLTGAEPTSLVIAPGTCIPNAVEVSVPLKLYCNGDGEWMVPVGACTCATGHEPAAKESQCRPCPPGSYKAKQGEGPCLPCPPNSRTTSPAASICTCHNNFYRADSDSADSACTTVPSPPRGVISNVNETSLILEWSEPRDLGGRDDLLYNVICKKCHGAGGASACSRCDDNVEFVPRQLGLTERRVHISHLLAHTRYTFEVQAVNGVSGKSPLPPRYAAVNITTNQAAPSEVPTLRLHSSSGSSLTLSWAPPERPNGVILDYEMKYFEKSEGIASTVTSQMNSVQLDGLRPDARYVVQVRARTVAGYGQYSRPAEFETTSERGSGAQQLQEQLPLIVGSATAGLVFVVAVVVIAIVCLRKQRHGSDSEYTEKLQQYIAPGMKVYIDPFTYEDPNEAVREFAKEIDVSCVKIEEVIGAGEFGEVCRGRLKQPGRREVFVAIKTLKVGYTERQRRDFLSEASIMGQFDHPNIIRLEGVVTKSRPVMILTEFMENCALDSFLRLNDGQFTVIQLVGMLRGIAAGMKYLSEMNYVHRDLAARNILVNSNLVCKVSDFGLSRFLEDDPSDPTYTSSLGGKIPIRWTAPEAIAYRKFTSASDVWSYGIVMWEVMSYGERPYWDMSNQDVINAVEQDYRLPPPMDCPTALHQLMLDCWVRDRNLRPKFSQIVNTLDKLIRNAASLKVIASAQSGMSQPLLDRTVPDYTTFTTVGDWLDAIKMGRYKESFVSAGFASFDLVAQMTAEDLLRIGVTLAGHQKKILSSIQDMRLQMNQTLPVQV
# test_details: Kinase panel profiling at 1 µmol/L (mobility shift assay, Carna)
# Format: biochemical
# protocol_conditions: 1 µmol/L of BTK inhibitor
measurement_kind: Percentage inhibition of kinase enzyme activity (%)
Write the value in % as a bare number.

Consider the compound `C=CC(=O)N1CCC([C@@H]2CCNc3c(C(N)=O)c(-c4ccc(Oc5ccccc5)cc4)nn32)CC1` and give its recorded Percentage inhibition of kinase enzyme activity.
-2.82

Please supply the value of reported Percentage inhibition of kinase enzyme activity for the item `C=CC(=O)N1CCC[C@@H](n2nc(-c3ccc(Oc4ccccc4)cc3)c3c(N)ncnc32)C1`
2.93

Please give the documented Percentage inhibition of kinase enzyme activity of `O=C(c1ccc(Oc2ccccc2)cc1Cl)c1c[nH]c2ncnc(N[C@@H]3CC[C@@H](CO)OC3)c12`
73.92

Report Percentage inhibition of kinase enzyme activity, nothing else, for this compound: `COc1ccc(F)cc1C(=O)NCc1ccc(-c2nn([C@@H](C)C(F)(F)F)c(N)c2C(N)=O)cc1`
34.88

Hello, please tell me recorded Percentage inhibition of kinase enzyme activity for this one: `CC#CC(=O)N1CCC[C@H]1c1nc(-c2ccc(C(=O)Nc3ccccn3)cc2)c2c(N)nccn12`
1.64
